Tested on: KE-37;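 also: growth inhibition of KE-37 cells, read out with a cell viability assay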
Assay: cells
Assay type: functional, cell-based, Homo sapiens
Settings: ke-37
Description: SANGER: Inhibition of human KE-37 cell growth in a cell viability assay.
assay-metric: IC50 (µM)
One number for each entry, in µM.

Which IC50 is listed for CISPLATIN ? 31.5

---

I'd appreciate it if you could supply IC50 values for the items below.
Test system: KYSE-150 cell line
Assay: cells
Assay type: functional, cell-based, Homo sapiens
Conditions: Homo sapiens, KYSE-150
Description: SANGER: Inhibition of human KYSE-150 cell growth in a cell viability assay.
Structures can show the parent of a compound that is named as a salt.
Answers are plain numbers, in nM.

Example molecules with recorded IC50:
{"molecule": "COC1=CC(c2cc3ccccc3[nH]2)=N/C1=C\\c1[nH]c(C)cc1C [OBATOCLAX MESYLATE]", "IC50 (nM)": 40.1}
{"molecule": "Cc1cc([N+](=O)[O-])ccc1NS(=O)(=O)c1cc(Cl)ccc1Cl", "IC50 (nM)": 5060}

Requested read-out: IC50. Entry: COc1cccc2c1C(=O)c1c(O)c3c(c(O)c1C2=O)C[C@@](O)(C(=O)CO)C[C@@H]3O[C@H]1C[C@H](N)[C@H](O)[C@H](C)O1 27.8
